Can you tell me MIC for the items I'm about to list?
# Test system: Pseudomonas aeruginosa
# TEST_METHOD_NOTES: Antibacterial activity against Pseudomonas aeruginosa DSM 22644 incubated for 24 hrs by disk diffusion method
# Format: functional
# CONDITION_DETAILS: DSM 22644, 24 h

Data request: If you can, please state the reported MIC value of `CN[C@@H]1[C@H](O[C@H]2[C@H](O[C@H]3[C@H](O)[C@@H](O)[C@H](N=C(N)N)[C@@H](O)[C@@H]3N=C(N)N)O[C@@H](C)[C@]2(O)C=O)O[C@@H](CO)[C@H](O)[C@H]1O` .
Data returned: 10 µg/mL

Data request: If you can, please state the reported MIC value of CC(C)[C@@H](C)/C=C/[C@@H](C)[C@H]1CCC2C3=CC(=O)O[C@@]3(O)CC[C@@]21C (stereo partly drawn) [DEMETHYLINCISTEROL A3] .
Data returned: > 10 µg/mL

Next, consider the following compound.
Data request: If you can, please state the reported MIC value of `CC(C)[C@@H](C)/C=C/[C@@H](C)[C@H]1CC[C@H]2C3=CC(=O)[C@@]4(O)C[C@@H](O)CC[C@]4(C)[C@@]3(O)CC[C@]12C` .
Data returned: > 10 µg/mL
